Molecular target: DNA gyrase (Escherichia coli) (UniProt P0AES6+P0AES4)
The reader will find reported MNEC values listed item by item below.
reportedProperty: MNEC (µg/mL)

[[record]]
compound = "COC(=O)c1c(C)c(OC)cc(O)c1CSC[C@H](NC(C)=O)C(=O)OC"
boundtype = "="
datavalue = 2

[[record]]
compound = "COC(=O)[C@@H]1CSCc2c(O)cc(OC)c(C)c2C(=O)OCCCCCCCC/C(S)=N/1"
boundtype = ">"
datavalue = 1

[[record]]
compound = "C=CCNC(=O)[C@@H]1CSCc2c(O)cc(OC)c(C)c2C(=O)OC[C@H](NC(=O)OC(C)(C)C)C(=O)N1"
boundtype = "="
datavalue = 0.1

[[record]]
compound = "COc1cc(O)c2c(c1C)C(=O)O[C@H](CO)C/C(S)=N/[C@H](c1nc(C)no1)CSC2"
boundtype = "="
datavalue = 0.01

[[record]]
compound = "COC(=O)[C@@H]1CSCc2c(O)cc(O)c(C)c2C(=O)OCC(NC(=O)[C@@H]2C(O)CCN2C(=O)OC(C)(C)C)C(=O)N1 (stereo partly specified)"
boundtype = "="
datavalue = 0.05

[[record]]
compound = "COC(=O)[C@@H]1CSCc2cccc(C)c2C(=O)OCC(NC(=O)OC(C)(C)C)C(=O)N1 (stereo partly specified)"
boundtype = ">"
datavalue = 1


----------
DNA gyrase (Escherichia coli) (UniProt P0AES6+P0AES4) data, read-out MNEC
reportedProperty: MNEC (µg/mL)

[[record]]
compound = "COC(=O)[C@@H]1CSCc2c(O)cc(OC)c(C)c2C(=O)OC/C(S)=N/1"
unitstring = "µg/mL"
boundtype = "="
datavalue = 0.2

[[record]]
compound = "COC(=O)[C@@H]1CSCc2ccccc2C(=O)OCC(NC(=O)OC(C)(C)C)C(=O)N1 (stereo partly drawn)"
unitstring = "µg/mL"
boundtype = ">"
datavalue = 1

[[record]]
compound = "COC(=O)[C@@H]1CSCc2c(O)ccc(C)c2C(=O)OCC(NC(=O)OC(C)(C)C)C(=O)N1 (stereo partly drawn)"
unitstring = "µg/mL"
boundtype = "="
datavalue = 1

[[record]]
compound = "COC(=O)[C@@H]1CSCc2c(O)cccc2C(=O)OCC(NC(=O)OC(C)(C)C)C(=O)N1 (stereo partly drawn)"
unitstring = "µg/mL"
boundtype = ">"
datavalue = 1

[[record]]
compound = "COC(=O)[C@@H]1CSCc2c(O)cc(O)cc2C(=O)OCC(NC(=O)OC(C)(C)C)C(=O)N1 (stereo partly drawn)"
unitstring = "µg/mL"
boundtype = "="
datavalue = 0.5

[[record]]
compound = "COC(=O)[C@@H]1CSCc2c(O)cc(O)c(C)c2C(=O)OCCC(=O)N1"
unitstring = "µg/mL"
boundtype = "="
datavalue = 0.25

[[record]]
compound = "COc1cc(O)c2c(c1C)C(=O)O[C@H](CO)CCC/C(S)=N/[C@H](c1nc(C)no1)CSC2"
unitstring = "µg/mL"
boundtype = "="
datavalue = 0.005

[[record]]
compound = "COC(=O)[C@H]1CSCc2c(O)cc(O)c(C)c2C(=O)OC[C@H](NC(=O)OC(C)(C)C)C(=O)N1"
unitstring = "µg/mL"
boundtype = "="
datavalue = 4

[[record]]
compound = "COC(=O)[C@@H]1CSCc2c(O)cc(OC)c(C)c2C(=O)OCCCCCCC(=O)N1"
unitstring = "µg/mL"
boundtype = ">"
datavalue = 1

[[record]]
compound = "COC(=O)[C@@H]1CSCc2c(O)cc(O)c(C)c2C(=O)OCC(NC(=O)CCO)C(=O)N1 (stereo partly drawn)"
unitstring = "µg/mL"
boundtype = "="
datavalue = 0.2

[[record]]
compound = "COC(=O)[C@@H]1CSCc2c(OC)cc(O)c(C)c2C(=O)OCC(NC(=O)OC(C)(C)C)C(=O)N1 (stereo partly drawn)"
unitstring = "µg/mL"
boundtype = ">"
datavalue = 1

[[record]]
compound = "COC(=O)[C@@H]1CSCc2c(O)cc(O)c(C)c2C(=O)OC[C@H](NC(=O)[C@@H]2CCCN2C(=O)OC(C)(C)C)C(=O)N1"
unitstring = "µg/mL"
boundtype = "="
datavalue = 2.5

[[record]]
compound = "COC(=O)[C@@H]1CSCc2ccc(O)c(C)c2C(=O)OCC(NC(=O)OC(C)(C)C)C(=O)N1 (stereo partly drawn)"
unitstring = "µg/mL"
boundtype = ">"
datavalue = 100

[[record]]
compound = "COC(=O)[C@@H]1CSCc2c(O)cc(OC)c(C)c2C(=O)OCCCCCC/C(S)=N/1"
unitstring = "µg/mL"
boundtype = "="
datavalue = 0.5

[[record]]
compound = "COC(=O)[C@@H]1CSCc2c(O)cc(OC)c(C)c2C(=O)OCCC(=O)N1"
unitstring = "µg/mL"
boundtype = "="
datavalue = 0.25

[[record]]
compound = "COC(=O)[C@@H]1CSCc2c(O)cc(OC)c(C)c2C(=O)OCCCCCCCCC(=O)N1"
unitstring = "µg/mL"
boundtype = ">"
datavalue = 1

[[record]]
compound = "COC(=O)[C@@H]1CSCc2c(O)cc(OC)c(C)c2C(=O)OCCCC(=O)N1"
unitstring = "µg/mL"
boundtype = "="
datavalue = 2

[[record]]
compound = "COc1cc(O)c2c(c1C)C(=O)OC[C@H](NC(=O)OC(C)(C)C)C(=O)N[C@H](C(=O)O)CSC2"
unitstring = "µg/mL"
boundtype = "="
datavalue = 10

